# study_target: SARS-CoV-2 Spike protein (SARS-CoV-2), P0DTC2
# measurement_description: cell-based or functional assay
No end group written: not given here.
value_type: inhibition of S-mediated cell-cell fusion (β-Gal complementation), IC50 (nM)

- binder: "DISQINASVVNIEYEIKKLEEVAXKLEESLIDLQELGSGSGC (not fully specified (C-terminus); also: α/β-peptide, β-residue positions not given here, alias: peg4 chol conjugate) [α/β-SARS2 HRC QE-6]"
  reported_result: 20
- binder: "DISQINASVVNIEYEIXKLEEVAXKLEESLIDLQELGSGSGC (not fully specified (C-terminus); also: α/β-peptide, β-residue positions not given here, alias: peg4 chol conjugate) [α/β-SARS2 HRC QE-8]"
  reported_result: 100
- binder: "DISQINASVVNIEYEIXKLEEVAXKLEESLIDLQELGSGSGC (not fully specified (C-terminus); also: α/β-peptide, β-residue positions not given here, alias: peg4 chol conjugate) [α/β-SARS2 HRC QE-7]"
  reported_result: 20
- binder: "DISQINASVVNIEYEIXKLEEVAKKLEESLIDLQELGSGSGC (not fully specified (C-terminus); also: α/β-peptide, β-residue positions not given here, alias: peg4 chol conjugate) [α/β-SARS2 HRC QE-5]"
  reported_result: 1000
